# Tested on: barnyardgrass
# protocol details: Test C flooded paddy test
# Assay type: in vivo, Echinochloa crus-galli
# reported conditions: Flood, 125 g ai/ha; scale 0 to 100, 0 no effect, 100 complete control; 13 to 15 days
metric name: Plant response rating, Barnyardgrass
Write the number on its own, no unit after it.

Incoming: Give Plant response rating, Barnyardgrass; test system barnyardgrass; compound Cn1nc(C(F)(F)F)c(CS(=O)(=O)c2cc(F)cc[n+]2[O-])c1Cl [Compound 41]
Outgoing: 0

Incoming: Provide the reported Plant response rating, Barnyardgrass (system: barnyardgrass) for Cn1nc(C(F)(F)F)c(CS(=O)(=O)c2cccc[n+]2[O-])c1OCC(F)(F)F [Compound 29]
Outgoing: 40

Incoming: // output Plant response rating, Barnyardgrass; input Cn1nc(C(F)(F)F)c(CS(=O)(=O)c2ccc(F)c[n+]2[O-])c1OCC(F)(F)F [Compound 106] ; system barnyardgrass
Outgoing: 15

Incoming: Please respond with reported Plant response rating, Barnyardgrass (system barnyardgrass) for Cn1nc(C(F)(F)F)c(C[S+]([O-])c2c(F)ccc[n+]2[O-])c1Cl (stereo not shown) [Compound 52] .
Outgoing: 0

---

Please provide measured Plant response rating, Field Bindweed for the entries that follow.
# Tested on: field bindweed
# protocol details: Test F preemergence test
# Format: in vivo, Convolvulus arvensis
# reported conditions: Preemergence; 16 g ai/ha; scale 0 to 100

Incoming: Give Plant response rating, Field Bindweed; test system field bindweed; compound Cc1cc[n+]([O-])c([S+]([O-])Cc2c(C(F)(F)F)nn(C)c2OCC(F)(F)F)c1 (racemic) [Compound 30]
Outgoing: 50

Incoming: Please respond with reported Plant response rating, Field Bindweed (system field bindweed) for Cc1cc[n+]([O-])c(S(=O)(=O)C(C)c2c(C(F)(F)F)nn(C)c2OC(F)F)c1 (centres unmarked) [Compound 11] .
Outgoing: 0

Incoming: Retrieve Plant response rating, Field Bindweed on field bindweed; query CC(c1c(C(F)(F)F)nn(C)c1OC(F)F)S(=O)(=O)c1cccc[n+]1[O-] (centres unmarked) [Compound 5]
Outgoing: 0

Incoming: Report Plant response rating, Field Bindweed from field bindweed testing of Cn1nc(C(F)(F)F)c(C[S+]([O-])c2cccc[n+]2[O-])c1OC(F)F (centres unmarked) [Compound 3]
Outgoing: 0

Incoming: Please report Plant response rating, Field Bindweed with field bindweed for item Cc1cc[n+]([O-])c(S(=O)(=O)C(Cl)c2c(C(F)(F)F)nn(C)c2Cl)c1 (racemic) [Compound 22] .
Outgoing: 0

---

Field: Corn plant response rating. Provide a value for each of the compounds that follow.
# System: corn
# protocol details: Test C pre-/postemergence test
# Format: in vivo, Zea mays
# reported conditions: 125 g ai/ha, preemergence; scale 0 (no effect) to 100 (complete control)

Incoming: # lookup: corn Corn plant response rating, key = Cn1nc(C(F)(F)F)c(C(Cl)S(=O)(=O)c2cccc[n+]2[O-])c1OC(F)F (centres unmarked)
Outgoing: 50

Incoming: Using corn as the test system, report measured Corn plant response rating of Cn1nc(C(F)(F)F)c(C[S+]([O-])c2ccc(F)c[n+]2[O-])c1OCC(F)(F)F (centres unmarked) .
Outgoing: 95

Incoming: Give the observed Corn plant response rating of Cn1nc(C(F)(F)F)c(C(Cl)S(=O)(=O)c2cccc[n+]2[O-])c1OCC(F)(F)F (racemic) for corn.
Outgoing: 60

Incoming: Write down the reported Corn plant response rating (system: corn) of CCn1nc(C(F)(F)F)c(CS(=O)(=O)c2cccc[n+]2[O-])c1OCC(F)(F)F
Outgoing: 90

Incoming: Send back corn Corn plant response rating of Cc1cc[n+]([O-])c(S(=O)(=O)Cc2c(C(F)(F)C(F)(F)F)nn(C)c2OCC(F)(F)F)c1 only.
Outgoing: 30

Incoming: # return Corn plant response rating for Cc1cc[n+]([O-])c(S(=O)(=O)Cc2c(C(F)(F)F)nn(C)c2OCC(F)F)c1 , test system: corn
Outgoing: 90

Incoming: Give the observed Corn plant response rating of Cc1cc[n+]([O-])c(S(=O)(=O)Cc2c(C(F)(F)F)nn(C)c2OC(C)C(F)(F)F)c1 (centres unmarked) for corn.
Outgoing: 35

Incoming: Give Corn plant response rating; test system corn; compound CCc1cc[n+]([O-])c([S+]([O-])Cc2c(C(F)(F)F)nn(C)c2OC(F)F)c1 (centres unmarked)
Outgoing: 90
